Value source: ChEMBL document CHEMBL3885861

Below, each entry is listed with its recorded TP.
- Organism: Rattus norvegicus
- Protocol Summary: Open TG-GATES - Regimen: Daily Repeat
- Format: toxicity, organism-based, Sprague-Dawley
- Design: regimen Daily Repeat, gender Male, age 6 weeks
- Reported Conditions: in vivo, po, 0 mg/kg, 72 h, tissue Plasma, route gavage, dose level Control, time 3 day
// note: answer is a bare numeric in g/dL

Before answering, review these 6 worked examples.
C[C@H]1C(=O)O[C@@H]2CCN3CC=C(COC(=O)[C@](C)(O)[C@]1(C)O)[C@H]23 | 5.6
CCOC(=O)C(C)(C)Oc1ccc(Cl)cc1 [CLOFIBRATE] | 5.6
O=[N+]([O-])c1ccc(O)c([N+](=O)[O-])c1 | 5.6
Cn1cc[nH]c1=S | 5.7
Cc1cccc(C)c1OCC(C)N (centres undefined) | 5.4
OCCN1CCN(CCCN2c3ccccc3Sc3ccc(C(F)(F)F)cc32)CC1 | 5.8

GET /values?readout=TP&item= "O=C1CN(/N=C/c2ccc([N+](=O)[O-])o2)C(=O)N1"
5.6

Item: C[C@H]1O[C@H](O[C@H]2[C@H](O)[C@@H](O)[C@@H](O[C@H]3[C@H](O)[C@@H](O)C(O)O[C@@H]3CO)O[C@@H]2CO)[C@H](O)[C@@H](O)[C@@H]1N[C@H]1C=C(CO)[C@@H](O)[C@H](O)[C@H]1O (some centres undefined)
5.5

Item: "C=C(C)[C@H]1Cc2c(ccc3c2O[C@@H]2COc4cc(OC)c(OC)cc4[C@@H]2C3=O)O1"
5.5
